Taken from the supplement of paper PMC11619387.

Tested on: Pseudomonas aeruginosa PAO1-Xen41
Experiment: EC50 of growth/kill rate concentration-effect curve
Conditions: medium (conditioned by secondary species or non-conditioned control): H. influenzae
parameterMeasured: EC50 (µg/mL)
Give the value in µg/mL but do not write µg/mL after it.

Answered cases to consult:
C[C@H]1[C@H](NC(=O)/C(=N\OC(C)(C)C(=O)O)c2csc(N)n2)C(=O)N1S(=O)(=O)O
5.7
CO[C@H]1/C=C/O[C@@]2(C)Oc3c(C)c(O)c4c(O)c(c(/C=N/N5CCN(C)CC5)c(O)c4c3C2=O)NC(=O)/C(C)=C\C=C\[C@H](C)[C@H](O)[C@@H](C)[C@@H](O)[C@@H](C)[C@H](OC(C)=O)[C@@H]1C
18.7

What value of measured EC50 is listed for `CN(C)c1ccc(O)c2c1C[C@H]1C[C@H]3[C@H](N(C)C)C(O)=C(C(N)=O)C(=O)[C@@]3(O)C(O)=C1C2=O` ? 9.75

----------
Test system: Pseudomonas aeruginosa PAO1-Xen41
Assay: Hill coefficient of concentration-effect curve (unitless); higher = steeper concentration-effect curve
Conditions: medium (conditioned by secondary species or non-conditioned control): MH broth + glucose
parameterMeasured: Hill coefficient
Hey, just send me the number, nothing else.

Solved cases (3 shown):
C[C@@H]1O[C@@H]1P(=O)(O)O
1.47
CC(C)(O/N=C(\C(=O)N[C@@H]1C(=O)N2C(C(=O)[O-])=C(C[n+]3ccccc3)CS[C@H]12)c1csc(N)n1)C(=O)O
2.61
CN(C)c1ccc(O)c2c1C[C@H]1C[C@H]3[C@H](N(C)C)C(O)=C(C(N)=O)C(=O)[C@@]3(O)C(O)=C1C2=O
1.2

Which Hill coefficient reading was recorded for the compound `C[C@H]1[C@H](NC(=O)/C(=N\OC(C)(C)C(=O)O)c2csc(N)n2)C(=O)N1S(=O)(=O)O` ? 4.64

----------
System: Pseudomonas aeruginosa PAO1-Xen41
Test: Hill coefficient of concentration-effect curve (unitless); higher = steeper concentration-effect curve
Settings: medium (conditioned by secondary species or non-conditioned control): B. cepacia
parameterMeasured: Hill coefficient
I only need the number, thanks.

For orientation, consider the following solved cases.
C[C@@H](O)[C@H]1C(=O)N2C(C(=O)O)=C(S[C@@H]3CN[C@H](C(=O)N(C)C)C3)[C@H](C)[C@H]12 [meropenem]
12.1
CO[C@H]1/C=C/O[C@@]2(C)Oc3c(C)c(O)c4c(O)c(c(/C=N/N5CCN(C)CC5)c(O)c4c3C2=O)NC(=O)/C(C)=C\C=C\[C@H](C)[C@H](O)[C@@H](C)[C@@H](O)[C@@H](C)[C@H](OC(C)=O)[C@@H]1C [rifampicin]
4.03
NC[C@H]1O[C@H](O[C@H]2[C@H](O)[C@@H](O[C@H]3O[C@H](CO)[C@@H](O)[C@H](N)[C@H]3O)[C@H](N)C[C@@H]2N)[C@H](N)C[C@@H]1O [tobramycin]
10.6
O=C(O)c1cn(C2CC2)c2cc(N3CCNCC3)c(F)cc2c1=O [ciprofloxacin]
3.61

Entry CN(C)c1ccc(O)c2c1C[C@H]1C[C@H]3[C@H](N(C)C)C(O)=C(C(N)=O)C(=O)[C@@]3(O)C(O)=C1C2=O [minocycline] , system Pseudomonas aeruginosa PAO1-Xen41: what Hill coefficient was measured? 1.13

Try the compound C[C@@H]1O[C@@H]1P(=O)(O)O [fosfomycin] 3.68

Same lookup for C[C@H]1[C@H](NC(=O)/C(=N\OC(C)(C)C(=O)O)c2csc(N)n2)C(=O)N1S(=O)(=O)O [aztreonam] , please. 7.76

Also CC(C)(O/N=C(\C(=O)N[C@@H]1C(=O)N2C(C(=O)[O-])=C(C[n+]3ccccc3)CS[C@H]12)c1csc(N)n1)C(=O)O [ceftazidime] , if possible. 2.53

Lookup CCC(C)CCCC(=O)N[C@@H](CCN)C(=O)N[C@H](C(=O)N[C@@H](CCN)C(=O)N[C@H]1CCNC(=O)[C@H]([C@@H](C)O)NC(=O)[C@H](CCN)NC(=O)[C@H](CCN)NC(=O)[C@H](CC(C)C)NC(=O)[C@@H](CC(C)C)NC(=O)[C@H](CCN)NC1=O)[C@@H](C)O (some centres undefined) [colistin] 1.13

----------
System: Pseudomonas aeruginosa PAO1-Xen41
Experiment: Emax, maximal drug effect on net growth rate (fitted lower asymptote) (per hour (slope of log luminescence)); higher = weaker maximal killing (less negative)
Conditions: medium (conditioned by secondary species or non-conditioned control): MH broth + glucose
List of Emax values.
# output: bare number, no unit

# annotated cases, reported Emax shown
O=C(O)c1cn(C2CC2)c2cc(N3CCNCC3)c(F)cc2c1=O
-0.101
C[C@@H](O)[C@H]1C(=O)N2C(C(=O)O)=C(S[C@@H]3CN[C@H](C(=O)N(C)C)C3)[C@H](C)[C@H]12
-0.0923
NC[C@H]1O[C@H](O[C@H]2[C@H](O)[C@@H](O[C@H]3O[C@H](CO)[C@@H](O)[C@H](N)[C@H]3O)[C@H](N)C[C@@H]2N)[C@H](N)C[C@@H]1O
-0.21
CC(C)(O/N=C(\C(=O)N[C@@H]1C(=O)N2C(C(=O)[O-])=C(C[n+]3ccccc3)CS[C@H]12)c1csc(N)n1)C(=O)O
-0.0864
C[C@H]1[C@H](NC(=O)/C(=N\OC(C)(C)C(=O)O)c2csc(N)n2)C(=O)N1S(=O)(=O)O
-0.0548
CO[C@H]1/C=C/O[C@@]2(C)Oc3c(C)c(O)c4c(O)c(c(/C=N/N5CCN(C)CC5)c(O)c4c3C2=O)NC(=O)/C(C)=C\C=C\[C@H](C)[C@H](O)[C@@H](C)[C@@H](O)[C@@H](C)[C@H](OC(C)=O)[C@@H]1C
-0.552
CCC(C)CCCC(=O)N[C@@H](CCN)C(=O)N[C@H](C(=O)N[C@@H](CCN)C(=O)N[C@H]1CCNC(=O)[C@H]([C@@H](C)O)NC(=O)[C@H](CCN)NC(=O)[C@H](CCN)NC(=O)[C@H](CC(C)C)NC(=O)[C@@H](CC(C)C)NC(=O)[C@H](CCN)NC1=O)[C@@H](C)O (some centres undefined)
-0.98
CN(C)c1ccc(O)c2c1C[C@H]1C[C@H]3[C@H](N(C)C)C(O)=C(C(N)=O)C(=O)[C@@]3(O)C(O)=C1C2=O
-0.432

Proceed to the following item.
For `C[C@@H]1O[C@@H]1P(=O)(O)O` , what is its reported Emax? -0.136

----------
Tested on: Pseudomonas aeruginosa PAO1-Xen41
Experiment: Hill coefficient of concentration-effect curve (unitless); higher = steeper concentration-effect curve
Settings: medium (conditioned by secondary species or non-conditioned control): H. influenzae
Listing of entries alongside the reported Hill coefficient.

// query Hill coefficient value for entry `CC(C)(O/N=C(\C(=O)N[C@@H]1C(=O)N2C(C(=O)[O-])=C(C[n+]3ccccc3)CS[C@H]12)c1csc(N)n1)C(=O)O` 2.27

----------
We begin with a simple list: items and their reported Emax.
Test system: Pseudomonas aeruginosa PAO1-Xen41
Assay: Emax, maximal drug effect on net growth rate (fitted lower asymptote) (per hour (slope of log luminescence)); higher = weaker maximal killing (less negative)
Settings: medium (conditioned by secondary species or non-conditioned control): S. aureus
Form: value (number only, do not type unit).

# annotated cases, reported Emax shown
NC[C@H]1O[C@H](O[C@H]2[C@H](O)[C@@H](O[C@H]3O[C@H](CO)[C@@H](O)[C@H](N)[C@H]3O)[C@H](N)C[C@@H]2N)[C@H](N)C[C@@H]1O [tobramycin]
-0.121
C[C@@H](O)[C@H]1C(=O)N2C(C(=O)O)=C(S[C@@H]3CN[C@H](C(=O)N(C)C)C3)[C@H](C)[C@H]12 [meropenem]
-0.0714
O=C(O)c1cn(C2CC2)c2cc(N3CCNCC3)c(F)cc2c1=O [ciprofloxacin]
-0.0957

# ---- query molecule ----
Checklist item: Emax tested on Pseudomonas aeruginosa PAO1-Xen41, entry C[C@H]1[C@H](NC(=O)/C(=N\OC(C)(C)C(=O)O)c2csc(N)n2)C(=O)N1S(=O)(=O)O [aztreonam] , value? -0.072

----------
Test system: Pseudomonas aeruginosa PAO1-Xen41
Test: Hill coefficient of concentration-effect curve (unitless); higher = steeper concentration-effect curve
Conditions: medium (conditioned by secondary species or non-conditioned control): M. catarrhalis
parameterMeasured: Hill coefficient

Below, each entry is followed by its recorded Hill coefficient result.
CN(C)c1ccc(O)c2c1C[C@H]1C[C@H]3[C@H](N(C)C)C(O)=C(C(N)=O)C(=O)[C@@]3(O)C(O)=C1C2=O [minocycline]
3.92
NC[C@H]1O[C@H](O[C@H]2[C@H](O)[C@@H](O[C@H]3O[C@H](CO)[C@@H](O)[C@H](N)[C@H]3O)[C@H](N)C[C@@H]2N)[C@H](N)C[C@@H]1O [tobramycin]
9.95
CCC(C)CCCC(=O)N[C@@H](CCN)C(=O)N[C@H](C(=O)N[C@@H](CCN)C(=O)N[C@H]1CCNC(=O)[C@H]([C@@H](C)O)NC(=O)[C@H](CCN)NC(=O)[C@H](CCN)NC(=O)[C@H](CC(C)C)NC(=O)[C@@H](CC(C)C)NC(=O)[C@H](CCN)NC1=O)[C@@H](C)O (stereo not given in full) [colistin]
14.6
C[C@H]1[C@H](NC(=O)/C(=N\OC(C)(C)C(=O)O)c2csc(N)n2)C(=O)N1S(=O)(=O)O [aztreonam]
4.2

Note: attention shifts to another entry.
Dear colleague, I am looking for the recorded Hill coefficient of the following molecule: CC(C)(O/N=C(\C(=O)N[C@@H]1C(=O)N2C(C(=O)[O-])=C(C[n+]3ccccc3)CS[C@H]12)c1csc(N)n1)C(=O)O [ceftazidime] 3.76
